Species: Rattus norvegicus
Assay: Open TG-GATES - Regimen: Single
Format: toxicity, organism-based, Sprague-Dawley
Set-up: regimen Single, gender Male, age 6 weeks
Settings: in vivo, po, 10 mg/kg, 24 h, tissue Plasma, route gavage, dose level Low
property-name: K (meq/L)
Write the number in meq/L without appending the unit.

{"columns": ["compound", "property-name", "reported-value"],
 "data": [
  ["CN(C)CCCN1c2ccccc2CCc2ccccc21 [IMIPRAMINE]", "K", 4]
]}

stdin: Given the compound CC(C)OC(=O)C(C)(C)Oc1ccc(C(=O)c2ccc(Cl)cc2)cc1 [FENOFIBRATE] , what is its reported K?
stdout: 4.3

stdin: Given the compound "CN(C)CCN(Cc1cccs1)c1ccccn1" , what is its reported K?
stdout: 4.3

stdin: Given the compound CN(C)CCCN1c2ccccc2CCc2ccc(Cl)cc21 [CLOMIPRAMINE] , what is its reported K?
stdout: 4

stdin: Given the compound CC1=C(/C=C/C(C)=C/C=C/C(C)=C/CO)C(C)(C)CCC1 [RETINOL] , what is its reported K?
stdout: 4.5

###

Quick reference: LIVER of the listed items.
Organism: Rattus norvegicus
Assay: Open TG-GATES - Regimen: Daily Repeat
Format: toxicity, organism-based, Sprague-Dawley
Design: regimen Daily Repeat, gender Male, age 6 weeks
Conditions: in vivo, po, 300 mg/kg, […], tissue Liver, route gavage, dose level Middle, time 7 day
Write the number in g without appending the unit.

{"columns": ["molecule", "property-name", "reported-value"],
 "data": [
  ["COC1=CC(=O)C[C@@H](C)[C@]12Oc1c(Cl)c(OC)cc(OC)c1C2=O", "LIVER", 12.8],
  ["COc1ccc2[nH]c([S+]([O-])Cc3ncc(C)c(OC)c3C)nc2c1 (stereo not given)", "LIVER", 14.5],
  ["CCOC(=O)CCC(=O)O[C@H]1[C@H](O[C@@H]2[C@@H](C)[C@H](O[C@H]3C[C@@](C)(OC)[C@@H](O)[C@H](C)O3)[C@@H](C)C(=O)O[C@H](CC)[C@@](C)(O)[C@H](O)[C@@H](C)C(=O)[C@H](C)C[C@@]2(C)O)O[C@H](C)C[C@@H]1N(C)C [ERYTHROMYCIN ETHYLSUCCINATE]", "LIVER", 12.2],
  ["NC(N)=Nc1nc(CSCCC(N)=NS(N)(=O)=O)cs1", "LIVER", 12.6]
]}

stdin: Given the molecule CCOc1ccc(NC(=O)CC(C)O)cc1 (stereo not given) , what is its reported LIVER?
stdout: 13.6

###

Species on record: Rattus norvegicus
Test: Open TG-GATES - Regimen: Single
Format: toxicity, organism-based, Sprague-Dawley
Design: regimen Single, gender Male, age 6 weeks
Conditions: in vivo, po, 30 mg/kg, 9 h, tissue Plasma, route gavage, dose level Middle
property-name: DBIL (mg/dL)
Write the number in mg/dL without appending the unit.

Illustrative cases are given below, each with its answer.
{"columns": ["compound-string", "DBIL, mg/dL"],
 "data": [
  ["CC1=C(/C=C/C(C)=C/C=C/C(C)=C/CO)C(C)(C)CCC1", 0.008],
  ["CN(C)CCN(Cc1cccs1)c1ccccn1", 0.002],
  ["CN(C)CCCN1c2ccccc2CCc2ccccc21", 0.01]
]}

Could you now look at the following molecule, please?
stdin: Given the molecule "CN(C)CCCN1c2ccccc2CCc2ccc(Cl)cc21" , what is its reported DBIL?
stdout: 0.024

###

Organism: Rattus norvegicus
Assay: Open TG-GATES - Regimen: Single
Format: toxicity, organism-based, Sprague-Dawley
Set-up: regimen Single, gender Male, age 6 weeks
Details: in vivo, po, 0 mg/kg, 9 h, tissue Plasma, route gavage, dose level Control
Quick reference: K of the listed items.
Write the number in meq/L without appending the unit.

Illustrative cases are given below, each with its answer.
{"columns": ["molecule", "K, meq/L"],
 "data": [
  ["CCOC(=O)CCC(=O)O[C@H]1[C@H](O[C@@H]2[C@@H](C)[C@H](O[C@H]3C[C@@](C)(OC)[C@@H](O)[C@H](C)O3)[C@@H](C)C(=O)O[C@H](CC)[C@@](C)(O)[C@H](O)[C@@H](C)C(=O)[C@H](C)C[C@@]2(C)O)O[C@H](C)C[C@@H]1N(C)C [ERYTHROMYCIN ETHYLSUCCINATE]", 4.2],
  ["COc1ccc2[nH]c([S+]([O-])Cc3ncc(C)c(OC)c3C)nc2c1 (configuration not stated) [OMEPRAZOLE]", 3.9],
  ["COc1cc2c(c(OC)c1OC)-c1ccc(OC)c(=O)cc1[C@@H](NC(C)=O)CC2 [COLCHICINE]", 4.9]
]}

stdin: Given the molecule CC(C)OC(=O)C(C)(C)Oc1ccc(C(=O)c2ccc(Cl)cc2)cc1 [FENOFIBRATE] , what is its reported K?
stdout: 4

stdin: Given the molecule CN(C)CCCN1c2ccccc2CCc2ccccc21 [IMIPRAMINE] , what is its reported K?
stdout: 4.1

stdin: Given the molecule CN(C)CCCN1c2ccccc2CCc2ccc(Cl)cc21 [CLOMIPRAMINE] , what is its reported K?
stdout: 4

stdin: Given the molecule CC1=C(/C=C/C(C)=C/C=C/C(C)=C/CO)C(C)(C)CCC1 [RETINOL] , what is its reported K?
stdout: 4.4

###

Organism: Rattus norvegicus
Test: Open TG-GATES - Regimen: Single
Type: toxicity, organism-based, Sprague-Dawley
Parameters: regimen Single, gender Male, age 6 weeks
Conditions: in vivo, po, 1000 mg/kg, 24 h, tissue Blood, route gavage, dose level High
property-name: MCV

{"columns": ["molecule", "property-name", "reported-value"],
 "data": [
  ["COc1ccc2[nH]c([S+]([O-])Cc3ncc(C)c(OC)c3C)nc2c1 (centres undefined) [OMEPRAZOLE]", "MCV", "61.6 fL"]
]}

stdin: Given the molecule CCOC(=O)CCC(=O)O[C@H]1[C@H](O[C@@H]2[C@@H](C)[C@H](O[C@H]3C[C@@](C)(OC)[C@@H](O)[C@H](C)O3)[C@@H](C)C(=O)O[C@H](CC)[C@@](C)(O)[C@H](O)[C@@H](C)C(=O)[C@H](C)C[C@@]2(C)O)O[C@H](C)C[C@@H]1N(C)C [ERYTHROMYCIN ETHYLSUCCINATE] , what is its reported MCV?
stdout: 62.8 fL

stdin: Given the molecule NC(N)=Nc1nc(CSCCC(N)=NS(N)(=O)=O)cs1 [FAMOTIDINE] , what is its reported MCV?
stdout: 60.7 fL

stdin: Given the molecule COC1=CC(=O)C[C@@H](C)[C@]12Oc1c(Cl)c(OC)cc(OC)c1C2=O [GRISEOFULVIN] , what is its reported MCV?
stdout: 65.5 fL

###

Species on record: Rattus norvegicus
Test: Open TG-GATES - Regimen: Daily Repeat
Type: toxicity, organism-based, Sprague-Dawley
Set-up: regimen Daily Repeat, gender Male, age 6 weeks
Details: in vivo, po, 0 mg/kg, […], tissue Kidney, route gavage, dose level Control, time 14 day
property-name: KIDNEY_R (g)
Write the number in g without appending the unit.

stdin: Given the compound CN(C)CCCN1c2ccccc2CCc2ccccc21 [IMIPRAMINE] , what is its reported KIDNEY_R?
stdout: 1.2

stdin: Given the compound COc1ccc2[nH]c([S+]([O-])Cc3ncc(C)c(OC)c3C)nc2c1 (stereo unspecified) [OMEPRAZOLE] , what is its reported KIDNEY_R?
stdout: 1.3

stdin: Given the compound CCOc1ccc(NC(=O)CC(C)O)cc1 (stereo unspecified) [BUCETIN] , what is its reported KIDNEY_R?
stdout: 1.3

stdin: Given the compound CC1=C(/C=C/C(C)=C/C=C/C(C)=C/CO)C(C)(C)CCC1 [RETINOL] , what is its reported KIDNEY_R?
stdout: 1.2

stdin: Given the compound NNC(=O)c1ccncc1 [ISONIAZID] , what is its reported KIDNEY_R?
stdout: 1.1

stdin: Given the compound "CN(C)CCN(Cc1cccs1)c1ccccn1" , what is its reported KIDNEY_R?
stdout: 1.1

###

Quick reference: LDH of the listed items.
Species: Rattus norvegicus
Experiment: Open TG-GATES - Regimen: Daily Repeat
Type: toxicity, organism-based, Sprague-Dawley
Parameters: regimen Daily Repeat, gender Male, age 6 weeks
Conditions: in vivo, po, 100 mg/kg, […], tissue Plasma, route gavage, dose level Low, time 28 day
Write the number in IU/L without appending the unit.

Illustrative cases are given below, each with its answer.
{"columns": ["compound", "reported-value"],
 "data": [
  ["COC1=CC(=O)C[C@@H](C)[C@]12Oc1c(Cl)c(OC)cc(OC)c1C2=O", 162.2],
  ["CCOC(=O)CCC(=O)O[C@H]1[C@H](O[C@@H]2[C@@H](C)[C@H](O[C@H]3C[C@@](C)(OC)[C@@H](O)[C@H](C)O3)[C@@H](C)C(=O)O[C@H](CC)[C@@](C)(O)[C@H](O)[C@@H](C)C(=O)[C@H](C)C[C@@]2(C)O)O[C@H](C)C[C@@H]1N(C)C [ERYTHROMYCIN ETHYLSUCCINATE]", 114],
  ["COc1ccc2[nH]c([S+]([O-])Cc3ncc(C)c(OC)c3C)nc2c1 (stereo not given)", 174.8],
  ["CCOc1ccc(NC(=O)CC(C)O)cc1 (stereo not given)", 82.8]
]}

Could you now look at the following compound, please?
stdin: Given the compound "NC(N)=Nc1nc(CSCCC(N)=NS(N)(=O)=O)cs1" , what is its reported LDH?
stdout: 132.8
